Biological target: Neutrophil elastase (Homo sapiens)
Sequence (P08246 whole entry): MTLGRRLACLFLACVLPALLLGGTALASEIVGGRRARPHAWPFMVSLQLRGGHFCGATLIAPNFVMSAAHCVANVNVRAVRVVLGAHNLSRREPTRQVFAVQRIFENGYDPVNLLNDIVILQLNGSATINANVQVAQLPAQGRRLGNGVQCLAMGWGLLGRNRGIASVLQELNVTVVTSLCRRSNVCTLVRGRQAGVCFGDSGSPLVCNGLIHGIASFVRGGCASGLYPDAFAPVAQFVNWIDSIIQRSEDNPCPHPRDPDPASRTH
Experiment: Inhibition constant (steady state) against Human Leukocyte Elastase (HLE)
Listed next: entries and their corresponding Ki ss.
Readout Label: Ki ss (nM)

compound="CO[C@H]1C(=O)N2C(C(=O)C(C)(C)C)=C(CSc3nnnn3C)[C@@H](OC(=O)c3ccccc3)S(=O)(=O)C12 (some centres undefined)" output_unit=nM value_comparator=< value=2
compound="CO[C@H]1C(=O)N2C(C(=O)C(C)(C)C)=C(COC(C)=O)[C@@H](Sc3nnnn3C)S(=O)(=O)C12 (some centres undefined)" output_unit=nM value_comparator== value=6
compound="CO[C@H]1C(=O)N2C(C(=O)C(C)(C)C)=C(C)[C@@H](OC(C)=O)S(=O)(=O)C12 (some centres undefined)" output_unit=nM value_comparator== value=4
compound="COCC1=C(C(=O)C(C)(C)C)N2C(=O)[C@H](Cl)C2S(=O)(=O)C1 (some centres undefined)" output_unit=nM value_comparator== value=170

###

Assay: Chemical stability (T1/2 at pH 7.4)
Type: physicochemical
Settings: buffer
Readout Label: half-life (h)

molecule="CO[C@H]1C(=O)N2C(C(=O)C(C)(C)C)=C(COC(=O)c3ccccc3)[C@@H](OC(=O)c3ccccc3)S(=O)(=O)C12 (stereo partly drawn)" output_unit=h value=1.2
molecule="CO[C@H]1C(=O)N2C(C(=O)C(C)(C)C)=C(C)[C@@H](S(=O)(=O)c3ccccc3)S(=O)(=O)C12 (stereo partly drawn)" output_unit=h value=10
molecule="CO[C@H]1C(=O)N2C(C(=O)C(C)(C)C)=C(C)CS(=O)(=O)C12 (stereo partly drawn)" output_unit=h value=106
molecule="CO[C@H]1C(=O)N2C(C(=O)OC(C)(C)C)=C(C)[C@@H](Sc3ccccn3)S(=O)(=O)C12 (stereo partly drawn)" output_unit=h value=4.1
molecule="CO[C@H]1C(=O)N2C(C(=O)c3ccccc3)=C(CSc3nnnn3C)[C@@H](Sc3nnnn3C)S(=O)(=O)C12 (stereo partly drawn)" output_unit=h value=1400
molecule="CC(=O)OCC1=C(C(=O)Cc2ccccc2)N2C(=O)[C@H](Cl)C2S(=O)(=O)C1 (stereo partly drawn)" output_unit=h value=0.2
molecule="CC(=O)OCC1=C(C(=O)C(C)(C)C)N2C(=O)[C@H](Cl)C2S(=O)(=O)[C@@H]1Sc1nnnn1C (stereo partly drawn)" output_unit=h value=1.8
molecule="CO[C@H]1C(=O)N2C(C(=O)N3CCC[C@H]3C(=O)O)=C(COC(C)=O)CS(=O)(=O)C12 (stereo partly drawn)" output_unit=h value=18

###

Listed next: entries and their corresponding half-life.
Assay: Chemical stability (T1/2 at pH 7.4)
Format: physicochemical
Details: buffer
Readout Label: half-life (h)

compound="CO[C@H]1C(=O)N2C(C(=O)C(C)(C)C)=C(COC(C)=O)CS(=O)(=O)C12 (some centres undefined)" value=14
compound="CO[C@H]1C(=O)N2C(C(=O)N3CCCC3)=C(CSc3nc(=O)c(=O)[nH]n3C)CS(=O)(=O)C12 (some centres undefined)" value=25
compound="CCC(=O)C1=C(COC(C)=O)CS(=O)(=O)C2[C@@H](Cl)C(=O)N12 (some centres undefined)" value=1.1
compound="CO[C@H]1C(=O)N2C(C(=O)C(C)(C)C)=C(C)[C@@H](OC(=O)c3ccc4ccccc4c3)S(=O)(=O)C12 (some centres undefined)" value=33
compound="CO[C@H]1C(=O)N2C(C(=O)C(C)(C)C)=C(C)[C@@H](OC(C)=O)S(=O)(=O)C12 (some centres undefined)" value=6.3
compound="CC(=O)CCC1=C(COC(C)=O)CS(=O)(=O)C2[C@@H](Cl)C(=O)N12 (some centres undefined)" value=10
compound="CO[C@H]1C(=O)N2C(C(=O)C(C)(C)C)=C(C)[C@@H](Sc3nnnn3C)S(=O)(=O)C12 (some centres undefined)" value=18
compound="CO[C@H]1C(=O)N2C(C(=O)C(C)(C)C)=C(C)[C@@H](Sc3nnc(C)s3)S(=O)(=O)C12 (some centres undefined)" value=27
compound="CO[C@H]1C(=O)N2C(C(=O)OC(C)(C)C)=C(CSc3ccccn3)CS(=O)(=O)C12 (some centres undefined)" value=5.1

###

Test: Chemical stability (T1/2 at pH 7.4)
Type: physicochemical
Conditions: buffer
Listed next: entries and their corresponding half-life.
Readout Label: half-life (h)

molecule="CC1=C(C(=O)c2ccccc2)N2C(=O)[C@H](Cl)C2S(=O)(=O)C1 (some centres not stated)" output_unit=h value_comparator== value=2.3
molecule="CO[C@H]1C(=O)N2C(C(=O)C(C)(C)C)=C(C)[C@@H](OC(=O)c3ccccc3)S(=O)(=O)C12 (some centres not stated)" output_unit=h value_comparator== value=24
molecule="Cn1nnnc1SCC1=C(C(=O)C(C)(C)C)N2C(=O)[C@H](Cl)C2S(=O)(=O)C1 (some centres not stated)" output_unit=h value_comparator== value=3
molecule="CO[C@H]1C(=O)N2C(C(=O)C(C)(C)C)=C(C)[C@@H](OC(=O)C(C)(C)C)S(=O)(=O)C12 (some centres not stated)" output_unit=h value_comparator== value=54
molecule="CO[C@H]1C(=O)N2C(C(=O)c3ccccc3)=C(C)[C@@H](Sc3nnnn3C)S(=O)(=O)C12 (some centres not stated)" output_unit=h value_comparator== value=200
molecule="COC(=O)C1=C(COC(C)=O)CS(=O)(=O)C2[C@@H](Cl)C(=O)N12 (some centres not stated)" output_unit=h value_comparator== value=0.9
molecule="CO[C@H]1C(=O)N2C(C(=O)C(C)(C)C)=C(CSc3nnnn3C)CS(=O)(=O)C12 (some centres not stated)" output_unit=h value_comparator== value=24
molecule="CO[C@H]1C(=O)N2C(C(=O)C(C)(C)C)=C(CSc3nnnn3C)[C@@H](OC(=O)c3ccccc3)S(=O)(=O)C12 (some centres not stated)" output_unit=h value_comparator== value=0.7
molecule="CC1=C(C(=O)C(C)(C)C)N2C(=O)[C@H](Cl)C2S(=O)(=O)[C@@H]1Sc1nnnn1C (some centres not stated)" output_unit=h value_comparator== value=3.2
molecule="CC1=C(C(=O)c2ccccc2)N2C(=O)[C@H](Cl)C2S(=O)(=O)[C@@H]1Sc1nnnn1C (some centres not stated)" output_unit=h value_comparator== value=4.1
molecule="CO[C@H]1C(=O)N2C(C(=O)C(C)(C)C)=C(CSc3ccccn3)CS(=O)(=O)C12 (some centres not stated)" output_unit=h value_comparator== value=28
molecule="CO[C@H]1C(=O)N2C(C(=O)C(C)(C)C)=C(CSc3nc(=O)c(=O)[nH]n3C)CS(=O)(=O)C12 (some centres not stated)" output_unit=h value_comparator== value=16
molecule="CO[C@H]1C(=O)N2C(C(=O)C(C)(C)C)=C(COC(C)=O)[C@@H](Sc3nnnn3C)S(=O)(=O)C12 (some centres not stated)" output_unit=h value_comparator== value=10
molecule="CO[C@H]1C(=O)N2C(C(=O)C(C)(C)C)=C(C)[C@@H](OC(=O)CCC(=O)c3ccccc3)S(=O)(=O)C12 (some centres not stated)" output_unit=h value_comparator== value=13
molecule="CO[C@H]1C(=O)N2C(C(=O)OC(C)(C)C)=C(CSc3nnnn3C)CS(=O)(=O)C12 (some centres not stated)" output_unit=h value_comparator== value=3.8
molecule="CO[C@H]1C(=O)N2C(C(=O)C(C)(C)C)=C(C)[C@@H](OC=O)S(=O)(=O)C12 (some centres not stated)" output_unit=h value_comparator=< value=0.5
molecule="CO[C@H]1C(=O)N2C(C(=O)c3ccccc3)=C(CSc3nnnn3C)CS(=O)(=O)C12 (some centres not stated)" output_unit=h value_comparator== value=17

###

Assay: Chemical stability (T1/2 at pH 7.4)
Type: physicochemical
Conditions: buffer
API: label(entry) gives class 1 if the entry's half-life is strictly smaller than 20 h; on equality or larger values it gives class 0.

compound="CO[C@H]1C(=O)N2C(C(=O)C(C)(C)C)=C(C)[C@@H](Sc3nc(=O)c(=O)[nH]n3C)S(=O)(=O)C12 (some centres undefined)" assigned_category="class 0"
compound="CC(=O)OCC1=C(C(=O)c2ccccc2)N2C(=O)[C@H](Cl)C2S(=O)(=O)C1 (some centres undefined)" assigned_category="class 1"
compound="CO[C@H]1C(=O)N2C(C(=O)C(C)(C)C)=C(C)[C@@H](OC(=O)c3ccc(CSc4nc(=O)c(=O)[nH]n4C)cc3)S(=O)(=O)C12 (some centres undefined)" assigned_category="class 1"
compound="CO[C@H]1C(=O)N2C(C(=O)C(C)(C)C)=C(C)[C@@H](Sc3ccccn3)S(=O)(=O)C12 (some centres undefined)" assigned_category="class 0"
compound="COCC1=C(C(=O)C(C)(C)C)N2C(=O)[C@H](Cl)C2S(=O)(=O)C1 (some centres undefined)" assigned_category="class 1"
compound="CO[C@H]1C(=O)N2C(C(=O)C(C)(C)C)=C(CSc3nnnn3C)[C@@H](Sc3nnnn3C)S(=O)(=O)C12 (some centres undefined)" assigned_category="class 0"
compound="CC1=C(C(=O)C(C)(C)C)N2C(=O)[C@H](Cl)C2S(=O)(=O)C1 (some centres undefined)" assigned_category="class 1"
compound="CC(=O)OCC1=C(C(=O)C(C)(C)C)N2C(=O)[C@H](Cl)C2S(=O)(=O)C1 (some centres undefined)" assigned_category="class 1"
compound="CO[C@H]1C(=O)N2C(C(=O)c3ccccc3)=C(C)CS(=O)(=O)C12 (some centres undefined)" assigned_category="class 0"
